Test system: M. abscessus ATCC 19977 (pre-induced)
ASSAY: microbe, parasite or virus in culture
Assay type: cell-based, Mycobacterium abscessus
EXPERIMENTAL SETUP: clarithromycin 0 μg/ml, partner antibiotic 1 μg/ml
# reported Percentage of bacterial growth; entries follow
Answer with a number only, understood to be in %.

query: Entry CN[C@H](CC(C)C)C(=O)N[C@H]1C(=O)N[C@@H](CC(N)=O)C(=O)N[C@H]2C(=O)N[C@H]3C(=O)N[C@H](C(=O)N[C@H](C(=O)O)c4cc(O)cc(O)c4-c4cc3ccc4O)[C@H](O)c3ccc(c(Cl)c3)Oc3cc2cc(c3O[C@@H]2O[C@H](CO)[C@@H](O)[C@H](O)[C@H]2O[C@H]2C[C@](C)(N)[C@H](O)[C@H](C)O2)Oc2ccc(cc2Cl)[C@H]1O [vancomycin] has what Percentage of bacterial growth?
result: 103.7

query: Can you share its Percentage of bacterial growth? I mean this molecule: C[C@@H](O)[C@H]1C(=O)N2C(C(=O)O)=C(SCCN=CN)C[C@H]12 [imipenem]
result: 86.9

query: For CO[C@H]1/C=C/O[C@@]2(C)Oc3c(C)c(O)c4c(c3C2=O)C2=NC3(CCN(CC(C)C)CC3)NC2=C(NC(=O)/C(C)=C\C=C\[C@H](C)[C@H](O)[C@@H](C)[C@@H](O)[C@@H](C)[C@H](OC(C)=O)[C@@H]1C)C4=O [rifabutin] , what is its reported Percentage of bacterial growth?
result: 105.5

query: // Percentage of bacterial growth lookup, key: COc1c(N2C[C@@H]3CCCN[C@@H]3C2)c(F)cc2c(=O)c(C(=O)O)cn(C3CC3)c12 [moxifloxacin]
result: 107.8

query: I am curious: what Percentage of bacterial growth value has been reported for CN(C)c1cc(NC(=O)CNC(C)(C)C)c(O)c2c1C[C@H]1C[C@H]3[C@H](N(C)C)C(O)=C(C(N)=O)C(=O)[C@@]3(O)C(O)=C1C2=O [tigecycline] ?
result: 64.2
